B1: APBB1IP (parent)
chain: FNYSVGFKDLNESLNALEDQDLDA

variants of: B1; test: protein stability index of a GFP-peptide fusion (GPS, HEK-293T) (PSI 1-6); higher = more stable; details: c terminus: a fixed tail appended;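 also: lentivirally expressed fusions sorted by FACS into six bins by GFP to DsRed ratio, PSI derived from sequencing read proportions per bin multiplied by bin number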
Documented protein stability index across a set of variants
Just the number.

Worked cases, answers included:
chain_sequence="FNYSVGFKDLNESFNALEDQDLDA [L14F]" reported=4
chain_sequence="FNYSVGFKDLNESLNALYDQDLDA [E18Y]" reported=2.95
chain_sequence="FIYSVGFKDLNESLNALEDQDLDA [N2I]" reported=4.43
chain_sequence="FNYSVGFKDLNESLNALEDQDTDA [L22T]" reported=4.82
chain_sequence="FNYSVAFKDLNESLNALEDQDLDA [G6A]" reported=3.34

Ask: May I ask what protein stability index has been recorded for FNYSVGFKDLNESLNALEDQDLRA [D23R] ?
Result: 3.81

Ask: May I ask what protein stability index has been recorded for FNYSVGFKDLNESLNALEIQDLDA [D19I] ?
Result: 3.86

Ask: May I ask what protein stability index has been recorded for ANYSVGFKDLNESLNALEDQDLDA [F1A] ?
Result: 5

Ask: May I ask what protein stability index has been recorded for FNYSVGFKGLNESLNALEDQDLDA [D9G] ?
Result: 4.39

Ask: May I ask what protein stability index has been recorded for FNYSVGFKDLNESLNALEDQDIDA [L22I] ?
Result: 4.74

Ask: May I ask what protein stability index has been recorded for FNQSVGFKDLNESLNALEDQDLDA [Y3Q] ?
Result: 5.36

Ask: May I ask what protein stability index has been recorded for FNYSVGFKDLNESLNALKDQDLDA [E18K] ?
Result: 3.82

Ask: May I ask what protein stability index has been recorded for FNYSVGFKDLNESLGALEDQDLDA [N15G] ?
Result: 4.78

Ask: May I ask what protein stability index has been recorded for FNYSVEFKDLNESLNALEDQDLDA [G6E] ?
Result: 4.2

Ask: May I ask what protein stability index has been recorded for FNYSVGFKDLNESLVALEDQDLDA [N15V] ?
Result: 4.7
